Ref: patent US7696379B2

- TGT: hmGluR5 (Homo sapiens)
- Sequence (P41594 21-1180 isoform P41594-2 limits assumed): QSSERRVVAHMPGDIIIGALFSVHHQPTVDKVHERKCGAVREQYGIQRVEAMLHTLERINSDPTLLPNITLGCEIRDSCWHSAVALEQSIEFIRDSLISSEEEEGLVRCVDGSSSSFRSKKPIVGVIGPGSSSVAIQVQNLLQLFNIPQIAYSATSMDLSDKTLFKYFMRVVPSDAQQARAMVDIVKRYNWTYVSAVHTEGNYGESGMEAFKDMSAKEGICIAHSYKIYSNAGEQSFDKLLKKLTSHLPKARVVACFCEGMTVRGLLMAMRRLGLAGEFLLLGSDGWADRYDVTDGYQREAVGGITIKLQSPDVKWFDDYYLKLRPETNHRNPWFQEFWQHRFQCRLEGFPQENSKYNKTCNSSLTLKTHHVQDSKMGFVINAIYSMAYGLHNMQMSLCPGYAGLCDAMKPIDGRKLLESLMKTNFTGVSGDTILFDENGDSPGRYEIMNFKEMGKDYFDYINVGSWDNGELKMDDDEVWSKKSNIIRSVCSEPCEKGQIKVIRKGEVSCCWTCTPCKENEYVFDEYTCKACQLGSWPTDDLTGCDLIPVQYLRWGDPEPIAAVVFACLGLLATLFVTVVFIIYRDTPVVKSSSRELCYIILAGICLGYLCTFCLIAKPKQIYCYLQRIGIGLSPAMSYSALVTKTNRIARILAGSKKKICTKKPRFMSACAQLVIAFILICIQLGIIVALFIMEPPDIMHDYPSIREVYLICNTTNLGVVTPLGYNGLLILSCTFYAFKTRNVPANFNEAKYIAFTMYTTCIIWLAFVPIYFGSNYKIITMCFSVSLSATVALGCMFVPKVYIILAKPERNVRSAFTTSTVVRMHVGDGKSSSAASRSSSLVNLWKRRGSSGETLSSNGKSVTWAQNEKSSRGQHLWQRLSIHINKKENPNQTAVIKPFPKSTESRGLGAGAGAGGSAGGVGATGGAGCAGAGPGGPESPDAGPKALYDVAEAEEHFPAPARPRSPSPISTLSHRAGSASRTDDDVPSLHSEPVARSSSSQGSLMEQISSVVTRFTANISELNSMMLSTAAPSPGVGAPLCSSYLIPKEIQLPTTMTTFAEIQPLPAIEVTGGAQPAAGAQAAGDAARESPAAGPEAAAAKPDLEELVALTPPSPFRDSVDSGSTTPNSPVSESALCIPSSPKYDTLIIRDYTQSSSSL
- EXPERIMENTAL_DETAILS: inhibition of agonist induced inositol phosphate turnover in hmGluR5 expressing cells
- CONDITIONS_USED: read-out: IC50 concentration, inhibition of quinqualate-induced inositol phosphate turnover
REPORTED_METRIC: pIC50
# pIC50 = -log10(concentration in molar units)

Result for O=C(N[C@@H]1CCC[C@](O)(C#Cc2cccc(Cl)c2)C1)c1ccoc1 , tested on hmGluR5 (Homo sapiens), pIC50: 7.55

====

Please provide measured melting point for the entries that follow.

melting point reading for O=C(N[C@@H]1CCC[C@](O)(C#Cc2cccc(F)c2)C1)c1cnc[nH]1 (racemic) : 190 to 191 °C

melting point reading for Cc1cccc(C#C[C@@]2(O)CCC[C@@H](NC(=O)c3ccoc3)C2)c1 (racemic) : 135 to 138 °C

melting point reading for Cc1cccc(C#C[C@@]2(O)CCC[C@@H](NC(=O)c3ccco3)C2)c1 : 139 to 142 °C

melting point reading for Cc1cccc(C#C[C@]2(O)CCC[C@H](NC(=O)c3ccco3)C2)c1 : 139 to 140 °C
